MEASUREMENT TARGET: T1, HSP70 (human HSP70; the antigen of the binning, humanization and variant binding assays) (human, UniProt P0DMV8 1-641, limits assumed)
T1 construct: also called hu HSP70
T1 sequence (P0DMV8 whole entry, change not shown): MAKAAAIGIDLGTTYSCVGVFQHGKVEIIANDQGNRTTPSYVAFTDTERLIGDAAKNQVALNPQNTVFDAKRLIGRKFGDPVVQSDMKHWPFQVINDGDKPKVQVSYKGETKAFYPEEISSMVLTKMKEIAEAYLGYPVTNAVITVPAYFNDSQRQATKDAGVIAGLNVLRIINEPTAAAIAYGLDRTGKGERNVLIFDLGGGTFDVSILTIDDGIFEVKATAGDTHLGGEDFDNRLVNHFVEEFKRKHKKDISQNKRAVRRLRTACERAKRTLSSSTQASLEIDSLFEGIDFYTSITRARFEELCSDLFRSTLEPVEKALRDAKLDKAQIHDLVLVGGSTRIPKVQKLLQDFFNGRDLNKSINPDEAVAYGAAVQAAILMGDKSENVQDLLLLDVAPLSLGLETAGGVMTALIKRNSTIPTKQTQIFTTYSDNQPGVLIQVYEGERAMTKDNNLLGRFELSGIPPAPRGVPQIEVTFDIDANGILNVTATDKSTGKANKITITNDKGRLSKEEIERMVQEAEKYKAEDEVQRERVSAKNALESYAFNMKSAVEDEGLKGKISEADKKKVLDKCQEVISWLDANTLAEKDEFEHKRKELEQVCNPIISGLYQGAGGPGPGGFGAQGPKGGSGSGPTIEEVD
ASSAY PROCEDURE: BLI, anti-human Fc capture, antigen 100 nM
ASSAY METRIC: % Diss (%)
Answer with a number only, understood to be in %.

Query string: Using the record for h77A-1.48 (antibody, V domains shown, captured by anti-human Fc) VH: QIQLVQSGAEVKKPGASVKVSCKASGYTFTNYGMNWVRQAPGQGLEWMGWINTYTGEPTYADDFKGRFTFTTDTSTSTAYMDLRSLRSDDTAVYFCARYDHYMDYWGQGTLVTVSS VL: EIVLTQSPDSLAVSLGERATINCKSSQSLLNSGTRKNYLAWYQQKPGQSPKLLIYWTSTRESGVPDRFSGSGSGTDFTLTIDSLQAEDVAVYYCKQSYTLYTFGGGTKVEIK , report its % Diss.
Result string: 34.5

Query string: Using the record for h77A-1.43 (antibody, V domains shown, captured by anti-human Fc) VH: QIHLVQSGAEVKKPGASVKVSCKASGYTFTNYGMNWVRQAPGQGLEWMGWINTYTGEPTYADDFKGRFTFTTDTSTSTVYMELRSLRSDDTAVYFCARYDHAMDYWGQGTLVTVSS VL: EIVLTQSPDSLAVSLGERATINCKSSQSLLNSGTRKNYLAWYQQKAGQSPKLIIYWTSTRESGVPDRFSGSGSGTDFTLTIDSLQAEDVAVYYCKQSYTLYTFGGGTKVEIK , report its % Diss.
Result string: 21.1

Query string: Using the record for h77A-1.28 (antibody, V domains shown, captured by anti-human Fc) VH: QIQLVQSGTEVKKPGASVKVSCKASGYTFTNYGMNWVRQAPGQGLEWMGWINTYTGEPTYADDFKGRFTFTTDTSTSTAYMELRSLRSDDTAVYFCARYDHTMDYWGQGTLVTVSS VL: EIVLTQSPDSLAVSLGERATINCKSSQSLLNSGTRKNYLAWYQQKAGQSPKLLIYWTSTRESGVPDRFSGSGSGTDFTLTIDSLQAEDVAVYYCKQSYTLYTFGGGTKVEIK , report its % Diss.
Result string: 18.8
